# target.under.test: TTK (Homo sapiens, UniProt P33981)
# Sequence (P33981 whole entry): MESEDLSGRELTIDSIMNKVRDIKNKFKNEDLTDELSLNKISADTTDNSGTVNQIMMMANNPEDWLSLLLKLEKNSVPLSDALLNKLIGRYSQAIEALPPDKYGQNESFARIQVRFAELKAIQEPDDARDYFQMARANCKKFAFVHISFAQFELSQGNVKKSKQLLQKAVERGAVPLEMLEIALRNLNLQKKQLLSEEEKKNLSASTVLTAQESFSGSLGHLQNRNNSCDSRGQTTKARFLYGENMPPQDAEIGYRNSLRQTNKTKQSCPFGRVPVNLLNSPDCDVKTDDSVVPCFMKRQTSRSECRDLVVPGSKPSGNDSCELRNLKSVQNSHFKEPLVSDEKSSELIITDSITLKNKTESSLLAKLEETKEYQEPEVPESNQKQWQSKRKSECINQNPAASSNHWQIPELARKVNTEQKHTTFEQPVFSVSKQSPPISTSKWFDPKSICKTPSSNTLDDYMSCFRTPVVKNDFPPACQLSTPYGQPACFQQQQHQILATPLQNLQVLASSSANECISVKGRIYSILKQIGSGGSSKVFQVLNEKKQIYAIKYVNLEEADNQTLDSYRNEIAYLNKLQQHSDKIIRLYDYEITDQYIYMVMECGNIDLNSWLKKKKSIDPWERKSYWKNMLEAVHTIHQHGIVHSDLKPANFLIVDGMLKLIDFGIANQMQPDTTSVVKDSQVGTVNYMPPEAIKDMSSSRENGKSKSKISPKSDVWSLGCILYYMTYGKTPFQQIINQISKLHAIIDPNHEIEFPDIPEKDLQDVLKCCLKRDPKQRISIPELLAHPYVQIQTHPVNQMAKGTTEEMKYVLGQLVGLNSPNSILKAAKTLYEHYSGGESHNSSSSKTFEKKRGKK
# test.name: TTK assay: screening of TTK kinase activity suppressing action using p38 MAPK peptide
# Type: biochemical
# measurement.parameters: read-out: TTK IC50
Reported log10(IC50) is given for each of the following compounds.
value.kind: log10(IC50) (log10 of the value in nM)

O=C(NC1CC1)c1ccc(-c2cnc3c(NCC4CCOCC4)cc(OC4CCCCC4O)nn23)cc1 (stereo not shown) [Example 2-188]
0.72
CC(C)(Nc1cc(NCC2CCOCC2)c2ncc(-c3ccc(C(=O)NC4CC4)c(F)c3)n2n1)C(F)(F)F [Example 2-219]
0.63
O=C(NC1CC1)c1ccc(-c2cnc3c(NCC4CCOCC4)c(F)c(OC4CCCC4)nn23)cc1 [Example 2-217]
1.14
O=C(NC1CC1)c1ccc(-c2nnc3c(NCC4CCOCC4)cc(NC4CCCC4)nn23)cc1 [Example 3-3]
2.16
CC1(Oc2cc(NCC3CCOCC3)c3ncc(-c4ccc(C(=O)NC5CC5)cc4)n3n2)CCCC1 [Example 2-192]
0.32
N#Cc1ccc(-c2cc(NCC3CCOCC3)c3ncc(-c4ccc(C(=O)NC5CC5)cc4)n3n2)cn1 [Example 2-199]
0.87
O=C(NC1CC1)c1ccc(-c2cnc3c(NCC4CCOCC4)cc(CC4CCCC4)nn23)cc1 [Example 2-210]
1.31
